Recorded values, source patent US20240246980A1.

- measurement_target: human MRGPRD (Homo sapiens)
- experiment: MRGPRD antagonist activity, IP-One HTRF assay in CHO cells stably expressing human MRGPRD (versus 100 μM β-Alanine agonist)
pIC50: −log10 of the molar value.
measured_attribute: pIC50

INSERT INTO results (compound, value_measured) VALUES
  ('COc1cccc(-c2nc(C3CCCN(C(=O)Nc4cccc(C)c4)C3)n3ccccc23)c1 (stereo not drawn)', '6.30 to 7.00'),
  ('COc1cccc(-c2nn(-c3cccc(C(=O)Nc4cccc(N(C)C)c4)c3)c3ncccc23)c1', '6.00 to 6.30'),
  ('COc1cccc(-c2nc(C3CCCN(C(=O)Nc4ccccc4F)C3)n3cccc(C)c23)c1 (stereo not drawn)', '6.30 to 7.00'),
  ('CN(C)c1ccc(NC(=O)N2CCC[C@@H](c3nc(-c4ccc5ccccc5c4)c4ccccn34)C2)cc1', '5.52 to 6.00'),
  ('O=C(Nc1ccccc1F)N1CCCC(c2nc(-c3ccc(F)cc3)c3ccccn23)C1 (stereo not drawn)', '5.52 to 6.00'),
  ('COc1cccc(-c2nn(C3CCCN(C(=O)Nc4ccc(N(C)C)cc4)C3)c3ncccc23)c1 (stereo not drawn)', '> 7.00');

* * *

Below: a set of entries, each annotated with reported pIC50.
- measurement_target: human MRGPRD (Homo sapiens)
- experiment: MRGPRD antagonist activity, IP-One HTRF assay in CHO cells stably expressing human MRGPRD (versus 100 μM β-Alanine agonist)
pIC50: −log10 of the molar value.
measured_attribute: pIC50

INSERT INTO measurements (compound, measurement_target, measured_attribute, value_measured) VALUES
  ('COc1cccc(-c2nc(C3CCCN(C(=O)Nc4ccc(C)cc4)C3)n3ccccc23)c1 (stereo not drawn)', 'human MRGPRD (Homo sapiens)', 'pIC50', '6.30 to 7.00'),
  ('COCc1cccc(-c2nc([C@@H]3CCCN(C(=O)Nc4ccc(N(C)C)cc4)C3)n3ccccc23)c1', 'human MRGPRD (Homo sapiens)', 'pIC50', '5.52 to 6.00'),
  ('COc1cccc(-c2nc(C3CCCN(C(=O)Nc4ccccc4F)C3)n3c(C)cccc23)c1 (stereo not drawn)', 'human MRGPRD (Homo sapiens)', 'pIC50', '6.30 to 7.00');

* * *

Below: a set of entries, each annotated with reported IC50.
- measurement_target: human MRGPRD (Homo sapiens)
- experiment: MRGPRD antagonist activity, IP-One HTRF assay in CHO cells stably expressing human MRGPRD (versus 100 μM β-Alanine agonist)
measured_attribute: IC50

INSERT INTO measurements (compound, value_measured) VALUES
  ('COc1cccc(-c2nc(C3CCCN(C(=O)c4ccc(F)cc4F)C3)n3ccccc23)c1 (stereo not drawn)', '500 to 1000 nM'),
  ('COc1cccc(-c2nc([C@@H]3CCCN(C(=O)NC4CCCCC4)C3)n3ccccc23)c1', '100 to 500 nM'),
  ('COc1cccc(-c2nc([C@@H]3CCCN(C(=O)Nc4ccccc4CN(C)C)C3)n3ccccc23)c1', '500 to 1000 nM'),
  ('COc1cccc(-c2nc([C@@H]3CCCN(C(=O)NCc4ccccc4)C3)n3ccccc23)c1', '< 100 nM'),
  ('COc1cccc(-c2nc(C3CCCN(C(=O)N(C)c4ccc(F)cc4)C3)n3ccccc23)c1 (stereo not drawn)', '1000 to 3000 nM'),
  ('COc1cccc(-c2nc(C3CCCN(C(=O)Nc4ccccc4F)C3)n3ccc(OC)cc23)c1 (stereo not drawn)', '> 3000 nM'),
  ('COc1cccc(-c2nc([C@@H]3CCCN(C(=O)Nc4ccc(C)cc4C)C3)n3ccccc23)c1', '< 100 nM'),
  ('COc1cccc(-c2nc([C@@H]3CCCN(C(=O)Nc4nc(C(C)C)ns4)C3)n3ccccc23)c1', '100 to 500 nM'),
  ('COc1cccc(-c2nc([C@@H]3CCCN(C(=O)Nc4ccccc4OC(F)(F)F)C3)n3ccccc23)c1', '500 to 1000 nM'),
  ('COc1cccc(-c2nc(C3CCCN(C(=O)c4cc(OC)c(OC)c(OC)c4)C3)n3c(OC)cccc23)c1 (stereo not drawn)', '> 3000 nM'),
  ('COc1ccccc1-c1nc(C2CCCN(C(=O)Nc3ccccc3F)C2)n2ccccc12 (stereo not drawn)', '1000 to 3000 nM'),
  ('COc1cccc(-c2nc([C@@H]3CCCN(C(=O)NC4(c5ccccc5)CC4)C3)n3ccccc23)c1', '< 100 nM'),
  ('COc1cccc(-c2nc([C@@H]3CCCN(C(=O)Nc4ccc(N(C)C)c(C)c4)C3)n3ccccc23)c1', '< 100 nM'),
  ('COc1cccc(-c2nc([C@@H]3CCCN(C(=O)Nc4ccc(F)cc4)C3)n3ccccc23)c1', '100 to 500 nM'),
  ('CN(C)Cc1cccc(-c2nc([C@@H]3CCCN(C(=O)Nc4ccc(N(C)C)cc4)C3)n3ccccc23)c1', '> 3000 nM'),
  ('COc1cccc(-c2nc([C@@H]3CCCN(C(=O)Nc4ccon4)C3)n3ccccc23)c1', '100 to 500 nM'),
  ('COc1cccc(-c2nc([C@@H]3CCCN(C(=O)Nc4ccc(C)cc4)C3)n3ccccc23)c1', '100 to 500 nM'),
  ('COc1cccc(-c2nn(-c3cccc(C(=O)Nc4ccc(N(C)C)cc4)c3)c3ncccc23)c1', '100 to 500 nM'),
  ('COc1cc(OC)cc(-c2nc([C@@H]3CCCN(C(=O)Nc4ccc(N(C)C)cc4)C3)n3ccccc23)c1', '< 100 nM'),
  ('COc1cccc(-c2nc(C3CCCN(C(=O)Nc4ccc(Cl)cc4)C3)n3ccccc23)c1 (stereo not drawn)', '500 to 1000 nM'),
  ('CCc1csc(NC(=O)N2CCC[C@@H](c3nc(-c4cccc(OC)c4)c4ccccn34)C2)n1', '500 to 1000 nM');

* * *

- measurement_target: human MRGPRD (Homo sapiens)
- experiment: MRGPRD antagonist activity, IP-One HTRF assay in CHO cells stably expressing human MRGPRD (versus 100 μM β-Alanine agonist)
measured_attribute: IC50

INSERT INTO results (compound, measured_attribute, value_measured) VALUES
  ('COc1cccc(-c2nc(C3CCCN(C(=O)c4ccc(OC)c(OC)c4)C3)n3c(OC)cccc23)c1 (centres unmarked) [Compound 14-5]', 'IC50', '100 to 500 nM'),
  ('CCOc1cccc(-c2nc([C@@H]3CCCN(C(=O)Nc4ccc(N(C)C)cc4)C3)n3ccccc23)c1 [Compound 10-4]', 'IC50', '< 100 nM'),
  ('Cc1csc(-c2nc([C@@H]3CCCN(C(=O)Nc4ccc(N(C)C)cc4)C3)n3ccccc23)c1 [Compound 10-58]', 'IC50', '500 to 1000 nM'),
  ('COc1cccc(-c2nc([C@@H]3CCCN(C(=O)Nc4nocc4C)C3)n3ccccc23)c1 [Compound 5-66]', 'IC50', '< 100 nM'),
  ('CNc1cccc(-c2nc([C@@H]3CCCN(C(=O)Nc4ccc(N(C)C)cc4)C3)n3ccccc23)c1 [Compound 10-40]', 'IC50', '500 to 1000 nM'),
  ('COc1cccc(-c2nc([C@@H]3CCCN(C(=O)Nc4onc(C)c4C)C3)n3ccccc23)c1 [Compound 5-50]', 'IC50', '< 100 nM'),
  ('COc1cccc(-c2nc([C@@H]3CCCN(C(=O)Nc4ccc(C(C)=O)cc4)C3)n3ccccc23)c1 [Compound 5-24]', 'IC50', '< 100 nM'),
  ('COc1cccc(-c2nc(C3CCCN(C(=O)c4ccc(F)c(F)c4)C3)n3ccccc23)c1 (centres unmarked) [Compound 12-12]', 'IC50', '500 to 1000 nM');

* * *

- measurement_target: human MRGPRD (Homo sapiens, UniProt Q8TDS7)
- Sequence (Q8TDS7 whole entry): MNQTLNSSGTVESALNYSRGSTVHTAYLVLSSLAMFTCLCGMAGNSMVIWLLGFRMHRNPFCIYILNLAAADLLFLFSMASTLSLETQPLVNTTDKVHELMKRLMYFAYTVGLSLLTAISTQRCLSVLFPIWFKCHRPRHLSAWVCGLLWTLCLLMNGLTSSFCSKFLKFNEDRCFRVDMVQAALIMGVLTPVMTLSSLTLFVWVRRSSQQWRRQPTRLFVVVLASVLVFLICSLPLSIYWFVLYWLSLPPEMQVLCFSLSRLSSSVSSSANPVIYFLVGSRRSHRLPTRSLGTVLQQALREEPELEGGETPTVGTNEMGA
- experiment: MRGPRD antagonist activity, IP-One HTRF assay in CHO cells stably expressing human MRGPRD (versus 100 μM β-Alanine agonist)
- Assay type: cell-based
- Protocol: Chinese Hamster Ovary (CHO) cells stably expressing human MRGPRD (Eurofins, San Diego CA) were plated in a 384-well plate at 20,000 cells per well in 12 μL of Optimem (Fisher Scientific 11-058-021). Plates were kept in the incubator at 37° C. overnight. […] Assay plates were read on either a Molecular Devices SpectraMax iD5 plate reader or a BMG ClarioStar plate reader. The HTRF ratio was calculated form the raw data and graphed using GraphPad Prism to calculate IC50 values. […]
measured_attribute: IC50

INSERT INTO results (compound, measured_attribute, value_measured) VALUES
  ('COc1cccc(-c2nc([C@@H]3CCCN(C(=O)Nc4cnc5ccccn45)C3)n3ccccc23)c1 [Compound 5-62]', 'IC50', '< 0.1 µM'),
  ('COc1ccc(-c2nc([C@@H]3CCCN(C(=O)Nc4ccc(N(C)C)cc4)C3)n3ccccc23)cc1 [Compound 10-43]', 'IC50', '0.5 to 1 µM'),
  ('O=C(Nc1ccccc1F)N1CCCC(c2nc(-c3ccncc3)c3ccccn23)C1 (stereo not shown) [Compound 11-10]', 'IC50', '1 to 3 µM'),
  ('COc1cccc(-c2nc([C@@H]3CCCN(C(=O)Nc4ccccc4N(C)C)C3)n3ccccc23)c1 [Compound 5-37]', 'IC50', '0.1 to 0.5 µM'),
  ('COc1cccc(-c2nc(C3CCCN(C(=O)Nc4ccccc4Cl)C3)n3ccccc23)c1 (stereo not shown) [Compound 3-7]', 'IC50', '0.5 to 1 µM'),
  ('CN(C)c1ccc(NC(=O)N2CCC[C@@H](c3nc(-c4cnn(Cc5ccccc5)c4)c4ccccn34)C2)cc1 [Compound 10-52]', 'IC50', '1 to 3 µM'),
  ('COc1cccc(-c2nc([C@@H]3CCCN(C(=O)Nc4nccs4)C3)n3ccccc23)c1 [Compound 5-67]', 'IC50', '< 0.1 µM');
